Test system: RXF 393
procedure.details: NCI tumour cell line growth inhibition, 48 h
The source made the active and inactive calls. No stated cut-off is given here; in the data, active = GI50 up to about 1.1 µM and inactive = higher.
Quick list: GI50 per entry.

O=C(O)/C=C\C(=O)Nc1ccc2c(c1)C(=O)c1cc(F)ccc1-2 = > 100 µM (inactive)
COC(=O)c1ccc(CCc2cc(O)ccc2O)cc1 = 7.89 µM (inactive)
O=C(O)c1ccc(NS(=O)(=O)Cc2ccccc2)cc1 = > 100 µM (inactive)
COc1ccc2nc3n(c2c1)C(=O)c1ccccc1-3 = > 100 µM (inactive)
CCOC(=O)c1c(C)[n+]([O-])c2cc(Cl)c(Cl)cc2[n+]1[O-] = 17.2 µM (inactive)

compound COC1CC(NC(=O)C(F)(F)F)C(OC(C)=O)C(C)O1 (stereo not drawn) , GI50 observed: > 100 µM (inactive)

compound O=C1CN2C(Cl)(Cl)C2(c2ccccc2)c2cc(Cl)ccc2N1CC1CC1 (stereo not drawn) , GI50 observed: 18.7 µM (inactive)

###

Test system: HT-29
procedure.details: NCI tumour cell line growth inhibition, 48 h
The source made the active and inactive calls. Rule as the data show it: active = GI50 up to about 1.1 µM and inactive = higher.
Hello, when you answer, please use one of the following outcomes: active, inactive

Look over these answered cases.
CCOC(=O)c1cc2cc(Cc3ccc4[nH]c(C(=O)OCC)cc4c3)ccc2[nH]1 = inactive
CCOC(=O)CCc1ccc(NC(=O)/C=C/c2ccc([N+](=O)[O-])o2)cc1 = active
CC(=O)Nc1ccc(-c2nc3ccccc3s2)cc1I = inactive
O=c1ccc2cc3ccc4cccc5ccc(c2o1)c3c45 = inactive
Cc1ccc(S(=O)(=O)n2ccc(-c3ccc4ccn(S(=O)(=O)c5ccc(C)cc5)c4c3)c2)cc1 = inactive
COc1cccc(Nc2n[nH]c(NS(=O)(=O)c3cc(C)c(Cl)cc3S)n2)c1 = inactive
COc1ccc(C(OCC2OC3(COC(c4ccccc4)(c4ccc(OC)cc4)c4ccc(OC)cc4)C(Oc4nc(=O)ccn43)C2O)(c2ccccc2)c2ccc(OC)cc2)cc1 (stereo unspecified) = inactive
O=C1c2ccccc2C(=O)c2cc3c(cc21)C[S+]([O-])C3 = inactive

Per the records of this test, what outcome belongs to CCN(CC)c1ccc2cc(-c3nc4ccccc4n3C)c(=O)oc2c1 ?
active

Per the records of this test, what outcome belongs to CC1CN=C(N(C(=O)Nc2ccccc2)c2ccccc2)S1 (stereo unspecified) ?
inactive

Per the records of this test, what outcome belongs to O=C1CC(=O)N(CCc2ccccc2)S(=O)(=O)N1CCc1ccccc1 ?
inactive

Per the records of this test, what outcome belongs to C=CC(=O)NC(O)(C(=O)OCC)C(F)(F)F (stereo unspecified) ?
inactive

Per the records of this test, what outcome belongs to C=C1C(=O)OC2CC3(C)CCCC(C)C3=CC12 (stereo unspecified) ?
inactive

###

System: OVCAR-5
procedure.details: NCI tumour cell line growth inhibition, 48 h
Activity calls are given as the source filed them. Cut-off read from the data, not from the text of the source: active = GI50 up to about 1.1 µM and inactive = higher.
value.kind: GI50

Observe how each entry below is paired with its result.
CC(CCC(=O)O)(c1ccc(O)cc1)c1ccc(O)cc1 = > 100 µM (inactive)
CC12CCCCC1C(=O)C2(Cl)Cl (stereo unspecified) = 2.56 µM (inactive)
O=c1c2ccc(Cl)cc2oc2c(CSc3ccccc3)cccc12 = > 62.8 µM (inactive)
Cc1noc(NS(=O)(=O)c2ccc(NC(=O)c3ccc4nc5ccccc5c(Nc5ccc(S(=O)(=O)Nc6onc(C)c6C)cc5)c4c3)cc2)c1C = > 100 µM (inactive)

compound CN(C)CCCN1CCC2(CCC(C(C)(C)C)CC2)CC1 , GI50 observed: 3.08 µM (inactive)

compound NC(=O)Cc1nc2c(O)ncnc2n1C1OC(CO)C(O)C1O (stereo unspecified) , GI50 observed: > 100 µM (inactive)

compound Oc1c2cccc1Cc1cccc3c1OCCOCCOCCOCCOc1c(cccc1Cc1cccc(c1O)C3)C2 , GI50 observed: > 100 µM (inactive)

compound O=C(c1ccc(Cl)cc1)c1ccc(OCC(=O)N2CCN(c3ccccc3)CC2)cc1 , GI50 observed: > 100 µM (inactive)

compound CCCCCCCC(=O)NCC(O)CNC(=O)CCCCCCC , GI50 observed: > 100 µM (inactive)

compound COC(=O)c1c(C)[nH]c2c1C(=O)C(=O)c1nc(C)c(C)nc1-2 , GI50 observed: 11.7 µM (inactive)

compound CCOC(=O)C#Cc1ccccc1 , GI50 observed: 5.08 µM (inactive)
